Assay overview: chemical genetic growth profiling, strain panel (AID 1159580);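 further: tested at 20 µM; growth read once vehicle control cultures reached saturation at 30 °C; 1 = growth at the plate median or of vehicle wells; lower values mean less growth of the strain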
Experimental setup: S. cerevisiae deletion strains, growth OD, locus YML016C, strain PPZ1
Screen size: about 5,500 compounds; about 2,000 (36%) were called active. Another 18% or so got no clear call; they are omitted. No stated cut-off is given here; in the data, active means normalized growth mostly below about 0.91 (no sharp cut-off); inconclusive means no clear call, values can overlap the other calls; inactive means mostly above about 0.92. This is one part of the list.
Choose one outcome from this list and give only that: active, inactive

Recorded results for 4 compounds are shown here.
Cc1coc2ccccc2c1=O | inactive
CN1CCOC(c2ccccc2)c2ccccc2C1 (stereo unspecified) | inactive
O=c1oc2ccccc2c(O)c1Cc1c(O)c2ccccc2oc1=O | inactive
COc1cc2c3cc1Oc1cc(ccc1O)C[C@@H]1c4c(cc(OC)c(O)c4Oc4ccc(cc4)C[C@@H]3N(C)CC2)CC[N+]1(C)C | inactive

Write down the call the test reported for this compound. Item: O=c1c2ccccc2oc2ccc(O)cc12
active

Write down the call the test reported for this compound. Item: CCOC(=O)C1C(C=C(C)C)C1(C)C (stereo unspecified)
inactive

Write down the call the test reported for this compound. Item: CN1CCc2c(c3ccccc3n2Cc2ccccc2)C1
inactive

Write down the call the test reported for this compound. Item: CC[N+]1(C)CCCC(OC(=O)C(O)(c2ccccc2)c2ccccc2)C1 (stereo unspecified)
inactive

---

Assay overview: chemical genetic growth profiling, strain panel (AID 1159580)
Experimental setup: S. cerevisiae deletion strains, growth OD, locus YDR363W, strain ESC2, active compounds read low
The whole screen tested about 5,500 compounds, of which about 2,000 (36%) were called active. About 18% were inconclusive and are not listed. The list shows a part of the results.
Please provide measured normalized growth for the entries that follow.
Numbers only.

# annotated cases, reported normalized growth shown
CCCCc1ccc(C(=O)O)nc1 | 1.02
COC(=O)C1=C(C)NC(C)=C(C(=O)OCCN(C)Cc2ccccc2)C1c1cccc([N+](=O)[O-])c1 (stereo not given) | 1.03
CCNC(=O)[C@H]1O[C@@H](n2cnc3c(N)nc(NCCc4ccc(CCC(=O)O)cc4)nc32)C(O)[C@H]1O (stereo not given in full) | 0.972

# per-item lookup of normalized growth; items listed below
1. C[N+]1(CCCCC[N+]2(C)CCCC2)CCCC1
2. O=C(O)C1CN(CCCP(=O)(O)O)CCN1 (stereo not given)
3. O=C(NCC1CCCCN1)c1cc(OCC(F)(F)F)ccc1OCC(F)(F)F (stereo not given)
4. CN1CC(O)C(O)C(O)C1CO (stereo not given)

0.985
0.965
1.01
0.997

# per-item lookup of normalized growth; items listed below
1. CNCCc1c[nH]c2ccc(O)cc12
2. CCCCCC[C@@H]([C@@H](C)O)n1cnc2c(N)ncnc21
3. C[n+]1cc2c3c(ccc2c2ccc4cc5c(cc4c21)OCO5)OCO3
4. CN1CCN2c3ccccc3Cc3ccccc3C2C1 (stereo not given)
5. CC1(NCC(O)COc2cccc3[nH]ccc23)CCC(C(C)(C)NC(=O)CBr)CC1 (stereo not given)

[1.01, 1, 0.0888, 0.983, 1.03]

---

Assay overview: chemical genetic growth profiling, strain panel (AID 1159580)
Experimental setup: S. cerevisiae deletion strains, growth OD, locus YNL071W, strain lat1
The whole screen tested about 5,500 compounds, of which about 2,000 (36%) were called active. Roughly 18% stayed inconclusive and do not appear here. Cut-off read from the data, not from the text of the source: active = normalized growth mostly below about 0.91 (no sharp cut-off); inconclusive = no clear call, values can overlap the other calls; inactive = mostly above about 0.92. This is one part of the list.
Choose one outcome from this list and give only that: active, inactive

COc1c(O)cccc1O | inactive

Write down the call the test reported for this compound. Item: O=C1c2c(O)ccc(O)c2C(=O)c2c(NCCNCCO)ccc(NCCNCCO)c21
active

Write down the call the test reported for this compound. Item: CC(C(=O)O)[C@H]1CCC2C3CC=C4C[C@@H](O)CC[C@]4(C)C3CC[C@@]21C (some centres undefined)
inactive

Write down the call the test reported for this compound. Item: CCCCCCc1ccc(O)cc1O
active

---

Assay overview: chemical genetic growth profiling, strain panel (AID 1159580)
Experimental setup: S. cerevisiae deletion strains, growth OD, locus YDR101C, strain arx1, active compounds read low
Screen size: about 5,500 compounds; about 2,000 (36%) were called active. Not shown: some 18% with an inconclusive outcome. This is one part of the list.
Please provide measured normalized growth for the entries that follow.
Numbers only.

# annotated cases, reported normalized growth shown
C#CCOS(=O)OC1CCCCC1Oc1ccc(C(C)(C)C)cc1 (centres undefined) | 0.987
CC(=O)O[C@H]1C[C@H](O[C@H]2[C@@H](O)C[C@H](O[C@H]3[C@@H](O)C[C@H](O[C@H]4CC[C@@]5(C)C(CCC6C5C[C@@H](O)[C@]5(C)[C@@H](C7=CC(=O)OC7)CC[C@]65O)C4)O[C@@H]3C)O[C@@H]2C)O[C@H](C)[C@H]1O[C@@H]1O[C@H](CO)[C@@H](O)[C@H](O)[C@H]1O (some centres undefined) | 0.983
CN(C)CCC=C1c2ccccc2CCc2ccccc21 | 0.995

# per-item lookup of normalized growth; items listed below
1. COc1ccc2c(=O)cc(-c3ccccc3OC)oc2c1
2. C[n+]1cc2c3c(ccc2c2ccc4cc5c(cc4c21)OCO5)OCO3
3. C=CCc1ccccc1OCC(O)CNC(C)C (centres undefined)

[0.883, 0.0711, 1.01]

---

Assay overview: chemical genetic growth profiling, strain panel (AID 1159580)
Experimental setup: S. cerevisiae deletion strains, growth OD, locus YER155C, strain BEM2
The whole screen tested about 5,500 compounds, of which about 2,000 (36%) were called active. Another 18% or so got no clear call; they are omitted. No stated cut-off is given here; in the data, active means normalized growth mostly below about 0.91 (no sharp cut-off); inconclusive means no clear call, values can overlap the other calls; inactive means mostly above about 0.92. The list shows a part of the results.
Choose one outcome from this list and give only that: label 1 for active, label 0 for inactive

CC(=O)Oc1cc(-c2coc3cc(OC(C)=O)c(OC(C)=O)c(OC(C)=O)c3c2=O)cc(OC(C)=O)c1OC(C)=O | label 1
Cn1nnnc1SCC1=C(C(=O)O)N2C(=O)C(NC(=O)C(O)c3ccccc3)C2SC1 (stereo unspecified) | label 0
CCN(CC)CCNc1ccc(CO)c2sc3ccccc3c(=O)c12 | label 0
NCCc1ccc(O)c(O)c1 | label 0
Cc1cc2cc3c(C)cc(=O)oc3c(C)c2o1 | label 0
CC(=O)N(O)CCCCCNC(=O)CCC(=O)N(O)CCCCCNC(=O)CCC(=O)N(O)CCCCCN | label 0
CCCCCCCCCc1ccc(O)cc1 | label 1
CC(N)Cc1ccc(O)cc1 (stereo unspecified) | label 0
O=c1c(-c2cc(O)c(O)c(O)c2)coc2cc(O)c(O)c(O)c12 | label 0
COc1ccc(-c2cc(=O)c3c(OC(C)=O)cc(OC(C)=O)cc3o2)cc1 | label 0

Write down the call the test reported for this compound. Item: CCCCC1C(=O)N(c2ccccc2)N(c2ccccc2)C1=O
label 0

---

Assay overview: chemical genetic growth profiling, strain panel (AID 1159580);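 further: tested at 20 µM; growth read once vehicle control cultures reached saturation at 30 °C; 1 = growth at the plate median or of vehicle wells; lower values mean less growth of the strain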
Experimental setup: S. cerevisiae deletion strains, growth OD, locus YER167W, strain BCK2, active compounds read low
In all, about 5,500 compounds went through this assay and about 2,000 (36%) were called active. Not shown: some 18% with an inconclusive outcome. Some of the results follow.
Param label: returns Yes when normalized growth < 0.9, returns No otherwise, including exact equality.

CSc1ccc2c(c1)C(N1CCN(C)CC1)Cc1ccccc1S2 (stereo unspecified) | No
CN(N=O)C(=O)N[C@@H]1[C@@H](O)[C@H](O)[C@@H](CO)O[C@@H]1O | No
COc1ccc(-c2coc3cc(OC)cc(O)c3c2=O)cc1 | No
COc1ccc(-c2cc(=O)c3ccccc3o2)cc1 | Yes
O=c1c(-c2ccc(O)cc2)coc2cc(O)cc(O)c12 | No

Read the next record carefully.
Item CC(=O)Oc1cc(OC(C)=O)c2c(=O)c(-c3ccccc3)coc2c1 : normalized growth beneath 0.9, strictly?
No

---

Assay overview: chemical genetic growth profiling, strain panel (AID 1159580);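 further: tested at 20 µM; growth read once vehicle control cultures reached saturation at 30 °C; 1 = growth at the plate median or of vehicle wells; lower values mean less growth of the strain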
Experimental setup: S. cerevisiae deletion strains, growth OD, locus YNL209W, strain ssb2
The whole screen tested about 5,500 compounds, of which about 2,000 (36%) were called active. Not shown: some 18% with an inconclusive outcome. Cut-off read from the data, not from the text of the source: active = normalized growth mostly below about 0.91 (no sharp cut-off); inconclusive = no clear call, values can overlap the other calls; inactive = mostly above about 0.92. The list shows a part of the results.
Choose one outcome from this list and give only that: active, inactive

Recorded results for 5 compounds are shown here.
CCCCCCc1ccc(O)cc1O | inactive
O=c1c2ccccc2oc2ccccc12 | inactive
CC(=O)O.CC(=O)O.[Cd] | active
O=C(O)c1cc(=O)c2ccccc2o1 | inactive
CC(=O)CC(c1ccccc1)c1c(O)c2ccccc2oc1=O (stereo not drawn) | inactive

Write down the call the test reported for this compound. Item: NCCc1ccc(O)c(O)c1
inactive

Write down the call the test reported for this compound. Item: Nc1nc(N)c2nc(-c3ccccc3)c(N)nc2n1
inactive

Write down the call the test reported for this compound. Item: NCCc1ccc(O)cc1
inactive

---

Please provide measured normalized growth for the entries that follow.
Assay overview: chemical genetic growth profiling, strain panel (AID 1159580);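 further: tested at 20 µM; growth read once vehicle control cultures reached saturation at 30 °C; 1 = growth at the plate median or of vehicle wells; lower values mean less growth of the strain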
Experimental setup: S. cerevisiae deletion strains, growth OD, locus YJL095W, strain BCK1 (second series), active compounds read low
About 2,000 (36%) of roughly 5,500 compounds were called active. Another 18% or so got no clear call; they are omitted. The list shows a part of the results.
Numbers only.

COc1ccc(C(=O)/C=C/c2ccccc2)cc1 | 0.886
O=C1CCc2cc(OCCCCc3nnnn3C3CCCCC3)ccc2N1 | 0.984
C=CCCCCCCCCCCCC(O)CC(O)CO (stereo unspecified) | 0.99
O=C(/C=C/c1ccccc1)c1ccc(O)cc1 | 0.0714
CC[C@]12C=CCN3CC[C@@]4(c5ccc(OC)cc5N(C)C4[C@@](O)(C(=O)OC)[C@@H]1OC(C)=O)[C@@H]32 (stereo partly specified) | 1

As a next step, examine the compound that follows.
Query (compound): NS(=O)(=O)c1cc2c(cc1C(F)(F)F)NCNS2(=O)=O ; field requested: normalized growth
0.997
